# Tested on: 596521-263-R-J1-PDC complex spheroids, viability % of control;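 note: spheroids exposed to drugs for 7 days before viability reading; 100% = DMSO vehicle control viability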
# EXPERIMENT_SUMMARY: Anticancer human tumor 596521-263-R-J1-PDC patient-derived soft tissue sarcoma cell line growth inhibition [GQUAD]
# CONDITION_PARAMETERS: second compound 0.316 µM; first compound 0.316 µM; hits give low values
Label yes (1) when viability, T/C is strictly below 60%; at or above that, label no (0).

Decide: viability, T/C of CC[C@@]1(O)C(=O)OCc2c1cc1n(c2=O)Cc2cc3c(CN(C)C)c(O)ccc3nc2-1 + CN(C)c1ccc(Nc2c3ccc(NC(=O)CCN4CCCC4)cc3nc3cc(NC(=O)CCN4CCCC4)ccc23)cc1 strictly below 60%? yes (1)

Hi there! Is viability, T/C for COc1cccc2c1C(=O)c1c(O)c3c(c(O)c1C2=O)CC(O)(C(=O)CO)CC3OC1CC(N)C(O)C(C)O1 (stereo unspecified) + Cc1cnc(CNC(=O)c2c(=O)c3ccc(N4CCCN(C)CC4)nc3n3c2sc2ccccc23)cn1 below 60%, do you know? yes (1)

Criterion: viability, T/C strictly below 60%. Is it met by COc1cccc2c1C(=O)c1c(O)c3c(c(O)c1C2=O)CC(O)(C(=O)CO)CC3OC1CC(N)C(O)C(C)O1 (stereo unspecified) + CN(C)c1ccc(Nc2c3ccc(NC(=O)CCN4CCCC4)cc3nc3cc(NC(=O)CCN4CCCC4)ccc23)cc1 ? yes (1)

Here's an entry: Cn1ncnc1[C@H]1c2n[nH]c(=O)c3cc(F)cc(c23)N[C@@H]1c1ccc(F)cc1 + Cc1cnc(CNC(=O)c2c(=O)c3ccc(N4CCCN(C)CC4)nc3n3c2sc2ccccc23)cn1 . Is its viability, T/C below 60%? no (0)

A record lists CCc1c2c(nc3ccc(O)cc13)-c1cc3c(c(=O)n1C2)COC(=O)[C@]3(O)CC + Cc1cnc(CNC(=O)c2c(=O)c3ccc(N4CCCN(C)CC4)nc3n3c2sc2ccccc23)cn1 . Is its viability, T/C below 60%? yes (1)

Below 60% on viability, T/C? Entry O=C(c1cc(Cc2n[nH]c(=O)c3ccccc23)ccc1F)N1CCN(C(=O)C2CC2)CC1 + Cc1cnc(CNC(=O)c2c(=O)c3ccc(N4CCCN(C)CC4)nc3n3c2sc2ccccc23)cn1 no (0)

Confirm or reject: viability, T/C of COc1ccc([C@@H](O)c2cc(-c3ncnc4cc(N5CCOCC5)ccc34)c(F)cc2Cl)nn1 + CN(C)c1ccc(Nc2c3ccc(NC(=O)CCN4CCCC4)cc3nc3cc(NC(=O)CCN4CCCC4)ccc23)cc1 lies strictly below 60% no (0)

Does this compound meet the criterion viability, T/C < 60%? CC1COCCN1c1cc(-c2ccnn2C)c2ccnc(-c3ccn[nH]3)c2n1 (stereo unspecified) + CN(C)c1ccc(Nc2c3ccc(NC(=O)CCN4CCCC4)cc3nc3cc(NC(=O)CCN4CCCC4)ccc23)cc1 yes (1)

Is 60% strictly greater than the compound's reported viability, T/C? compound: CC1COCCN1c1cc(-c2ccnn2C)c2ccnc(-c3ccn[nH]3)c2n1 (stereo unspecified) + Cc1[nH]c2ccc(F)cc2c1-c1nc2c3cccnc3c3ncccc3c2[nH]1 yes (1)

I wonder whether COc1cccc2c1C(=O)c1c(O)c3c(c(O)c1C2=O)CC(O)(C(=O)CO)CC3OC1CC(N)C(O)C(C)O1 (stereo unspecified) + Cc1[nH]c2ccc(F)cc2c1-c1nc2c3cccnc3c3ncccc3c2[nH]1 has viability, T/C below 60%. Can you tell? no (0)

Given the entry CCc1c2c(nc3ccc(O)cc13)-c1cc3c(c(=O)n1C2)COC(=O)[C@]3(O)CC + Cc1[nH]c2ccc(F)cc2c1-c1nc2c3cccnc3c3ncccc3c2[nH]1 , would its reported viability, T/C be below 60%? yes (1)
